test: Metabolic stability in liver microsomes; conditions: rat, liver microsomes, pH 7.4
Test readout: remaining at 0 h, 1 μM

Bench note: what remaining at 0 h, 1 μM did CCc1cc(Cl)c(OC)c(N2CCN(CC(O)CCNC(=O)c3cc4ccccc4[nH]3)CC2)c1 (stereo not shown) [R-VK4-116] show?
100%

###

system: CYP2B6; test: CYP induction, mRNA, primary cultured human hepatocytes; conditions: primary cultured human hepatocytes, Fold Induction (CYP2B6 mRNA expression), hepatocyte Lot 336, 3 µM
Test readout: fold induction at 48 h, 3 µM
Numbers only.

Bench note: what fold induction at 48 h, 3 µM did CCc1cc(Cl)c(OC)c(N2CCN(CC(O)CCNC(=O)c3cc4ccccc4[nH]3)CC2)c1 (stereo not shown) show?
1.9

###

assay: Metabolic stability in liver microsomes; conditions: monkey, liver microsomes, pH 7.4
Test readout: remaining at 1 h, 10 μM (%)
Give bare numbers, in %.

Bench note: what remaining at 1 h, 10 μM did CCc1cc(Cl)c(OC)c(N2CCN(CC(O)CCNC(=O)c3cc4ccccc4[nH]3)CC2)c1 (stereo not shown) [R-VK4-116] show?
46.5

###

experiment: Metabolic stability in hepatocyte; details: Beagle, dog, hepatocytes in suspension
Test readout: hepatocyte CLint at 0.5 μM (µL/min/1e6 cells)
Answers are plain numbers, in µL/min/1e6 cells.

Bench note: what hepatocyte CLint at 0.5 μM did CCc1cc(Cl)c(OC)c(N2CCN(CC(O)CCNC(=O)c3cc4ccccc4[nH]3)CC2)c1 (stereo not shown) show?
15.2

###

molecular target: UniProtKB P10635; assay: CYP inhibition in human liver microsomes; conditions: human, microsomes
Sequence (P10635 whole entry): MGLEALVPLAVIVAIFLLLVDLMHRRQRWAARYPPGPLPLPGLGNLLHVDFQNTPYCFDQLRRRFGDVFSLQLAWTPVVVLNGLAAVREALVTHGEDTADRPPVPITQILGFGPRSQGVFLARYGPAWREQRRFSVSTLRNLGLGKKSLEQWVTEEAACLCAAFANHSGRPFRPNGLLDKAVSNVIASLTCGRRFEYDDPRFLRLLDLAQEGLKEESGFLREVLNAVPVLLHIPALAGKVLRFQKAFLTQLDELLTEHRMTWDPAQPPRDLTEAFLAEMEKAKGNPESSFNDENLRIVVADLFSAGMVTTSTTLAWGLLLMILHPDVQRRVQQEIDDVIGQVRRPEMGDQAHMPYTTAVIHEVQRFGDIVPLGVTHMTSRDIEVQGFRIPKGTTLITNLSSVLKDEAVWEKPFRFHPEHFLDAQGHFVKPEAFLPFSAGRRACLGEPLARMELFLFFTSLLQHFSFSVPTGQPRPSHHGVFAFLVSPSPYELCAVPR
Test readout: activity at 20 min, 10 µM (%)
Answers are plain numbers, in %.

Bench note: what activity at 20 min, 10 µM did "S=P(N1CC1)(N1CC1)N1CC1" show?
90.7

###

assay: Metabolic stability in hepatocyte; settings: Sprague Dawley (rat); Beagle (dog), human, rat, dog, hepatocytes in suspension
Test readout: hepatocyte CLint at 10 μM

Bench note: what hepatocyte CLint at 10 μM did CCc1cc(Cl)c(OC)c(N2CCN(CC(O)CCNC(=O)c3cc4ccccc4[nH]3)CC2)c1 (stereo not shown) show?
4 to 8 µL/min/1e6 cells

###

assay: Metabolic stability in liver microsomes; details: rat, liver microsomes, pH 7.4
Test readout: remaining at 1.5 h, 10 μM (%)
One number for each entry, in %.

Bench note: what remaining at 1.5 h, 10 μM did CCc1cc(Cl)c(OC)c(N2CCN(CC(O)CCNC(=O)c3cc4ccccc4[nH]3)CC2)c1 (stereo not shown) [R-VK4-116] show?
73.3

###

assay: Metabolic stability in liver microsomes; details: monkey, heat-inactivated liver microsomes, pH 7.4
Test readout: remaining at 0 h, 1 μM
Please format your answer as a value with the unit trailing.

Bench note: what remaining at 0 h, 1 μM did CCc1cc(Cl)c(OC)c(N2CCN(CC(O)CCNC(=O)c3cc4ccccc4[nH]3)CC2)c1 (stereo not shown) show?
100%

###

biological target: hERG (Homo sapiens, UniProt Q12809); experiment: CiPA IonChannelProfiler Cardiac Panel, QPatch; conditions: ≥10 μM
Sequence (Q12809 whole entry): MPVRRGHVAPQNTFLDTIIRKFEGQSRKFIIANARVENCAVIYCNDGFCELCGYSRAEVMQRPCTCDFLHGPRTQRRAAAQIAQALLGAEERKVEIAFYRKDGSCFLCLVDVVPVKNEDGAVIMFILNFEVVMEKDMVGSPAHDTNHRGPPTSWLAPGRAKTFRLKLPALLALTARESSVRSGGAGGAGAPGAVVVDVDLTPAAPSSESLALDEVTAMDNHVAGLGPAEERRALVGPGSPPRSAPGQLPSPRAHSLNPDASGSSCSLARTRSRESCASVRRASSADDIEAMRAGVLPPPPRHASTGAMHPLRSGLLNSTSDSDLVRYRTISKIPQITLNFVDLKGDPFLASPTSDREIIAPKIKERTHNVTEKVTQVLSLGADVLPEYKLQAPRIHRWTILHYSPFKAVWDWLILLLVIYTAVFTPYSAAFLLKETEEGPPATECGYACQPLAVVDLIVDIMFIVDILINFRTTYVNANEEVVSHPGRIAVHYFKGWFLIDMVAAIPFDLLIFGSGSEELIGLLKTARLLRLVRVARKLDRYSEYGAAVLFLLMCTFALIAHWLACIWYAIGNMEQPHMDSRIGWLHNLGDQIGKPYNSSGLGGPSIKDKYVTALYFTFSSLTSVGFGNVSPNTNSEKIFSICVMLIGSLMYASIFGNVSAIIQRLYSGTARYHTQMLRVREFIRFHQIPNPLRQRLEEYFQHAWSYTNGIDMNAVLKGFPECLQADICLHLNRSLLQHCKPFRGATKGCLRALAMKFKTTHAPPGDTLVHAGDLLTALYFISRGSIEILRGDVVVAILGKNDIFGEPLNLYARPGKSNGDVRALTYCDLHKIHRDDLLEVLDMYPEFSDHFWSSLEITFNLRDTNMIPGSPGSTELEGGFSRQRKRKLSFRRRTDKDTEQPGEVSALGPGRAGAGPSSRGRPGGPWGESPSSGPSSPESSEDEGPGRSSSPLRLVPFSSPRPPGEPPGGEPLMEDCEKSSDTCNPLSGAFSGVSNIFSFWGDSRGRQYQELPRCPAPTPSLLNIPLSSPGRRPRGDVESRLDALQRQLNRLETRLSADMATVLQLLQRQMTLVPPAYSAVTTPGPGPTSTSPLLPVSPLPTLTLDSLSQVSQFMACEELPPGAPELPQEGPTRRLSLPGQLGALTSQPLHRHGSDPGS
Test readout: inhibition at 10 µM

Bench note: what inhibition at 10 µM did CCc1cc(Cl)c(OC)c(N2CCN(CC(O)CCNC(=O)c3cc4ccccc4[nH]3)CC2)c1 (stereo not shown) [R-VK4-116] show?
54 to 82%

###

molecular target: CYP2C19 (Homo sapiens, UniProt P33261); assay: CYP inhibition in human liver microsomes; settings: human, human liver microsomes, probe mephenytoin
Sequence (P33261 whole entry): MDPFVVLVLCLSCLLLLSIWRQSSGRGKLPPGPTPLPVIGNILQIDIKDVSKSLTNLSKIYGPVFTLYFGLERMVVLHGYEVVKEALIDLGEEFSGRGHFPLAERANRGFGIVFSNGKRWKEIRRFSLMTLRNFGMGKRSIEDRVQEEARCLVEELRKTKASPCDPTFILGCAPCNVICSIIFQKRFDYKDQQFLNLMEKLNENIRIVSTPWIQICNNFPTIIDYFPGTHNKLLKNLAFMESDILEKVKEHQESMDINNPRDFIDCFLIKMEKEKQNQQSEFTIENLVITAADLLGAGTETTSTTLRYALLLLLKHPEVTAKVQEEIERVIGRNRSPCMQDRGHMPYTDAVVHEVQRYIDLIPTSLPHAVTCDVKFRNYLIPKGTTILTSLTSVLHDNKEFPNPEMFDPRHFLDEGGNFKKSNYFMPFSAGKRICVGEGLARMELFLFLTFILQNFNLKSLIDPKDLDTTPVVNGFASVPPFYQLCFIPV
Test readout: activity at 20 min, 1 µM (%)
Give bare numbers, in %.

Bench note: what activity at 20 min, 1 µM did CCc1cc(Cl)c(OC)c(N2CCN(CC(O)CCNC(=O)c3cc4ccccc4[nH]3)CC2)c1 (stereo not shown) show?
97.3

###

tested on: CYP3A4 mRNA; assay: CYP induction, mRNA, primary cultured human hepatocytes; format: in vitro ADME; conditions: human, primary cultured human hepatocytes, Lot 348B, 0.1 μM; read-out: CYP3A4 mRNA Fold Induction (fold of vehicle control)
Test readout: fold induction at 48 h, 0.1 µM
Numbers only.

Bench note: what fold induction at 48 h, 0.1 µM did CCc1cc(Cl)c(OC)c(N2CCN(CC(O)CCNC(=O)c3cc4ccccc4[nH]3)CC2)c1 (stereo not shown) [R-VK4-116] show?
1.2

###

experiment: Metabolic stability in liver microsomes; conditions: human, heat-inactivated liver microsomes, pH 7.4
Test readout: remaining at 2 h, 1 μM (%)
Answers are plain numbers, in %.

Bench note: what remaining at 2 h, 1 μM did CCc1cc(Cl)c(OC)c(N2CCN(CC(O)CCNC(=O)c3cc4ccccc4[nH]3)CC2)c1 (stereo not shown) show?
96.7

###

experiment: Metabolic stability in liver microsomes; conditions: dog, liver microsomes, pH 7.4
Test readout: remaining at 0.5 h, 1 μM (%)
Give bare numbers, in %.

Bench note: what remaining at 0.5 h, 1 μM did CCc1cc(Cl)c(OC)c(N2CCN(CC(O)CCNC(=O)c3cc4ccccc4[nH]3)CC2)c1 (stereo not shown) show?
44.6

###

assay: Metabolic stability in liver microsomes; conditions: human, microsomes, pH 7.4
Test readout: remaining at 0 h, 10 μM (%)
One number for each entry, in %.

Bench note: what remaining at 0 h, 10 μM did Cc1ncc2n1-c1ccc(Cl)cc1C(c1ccccc1F)=NC2 [Midazolam, reference compound] show?
100

###

Biological target: MATE1 (Homo sapiens, UniProt Q96FL8)
Construct: expressed in transfected cells; host or cells: MDCK-II cells
Sequence (Q96FL8 1-570): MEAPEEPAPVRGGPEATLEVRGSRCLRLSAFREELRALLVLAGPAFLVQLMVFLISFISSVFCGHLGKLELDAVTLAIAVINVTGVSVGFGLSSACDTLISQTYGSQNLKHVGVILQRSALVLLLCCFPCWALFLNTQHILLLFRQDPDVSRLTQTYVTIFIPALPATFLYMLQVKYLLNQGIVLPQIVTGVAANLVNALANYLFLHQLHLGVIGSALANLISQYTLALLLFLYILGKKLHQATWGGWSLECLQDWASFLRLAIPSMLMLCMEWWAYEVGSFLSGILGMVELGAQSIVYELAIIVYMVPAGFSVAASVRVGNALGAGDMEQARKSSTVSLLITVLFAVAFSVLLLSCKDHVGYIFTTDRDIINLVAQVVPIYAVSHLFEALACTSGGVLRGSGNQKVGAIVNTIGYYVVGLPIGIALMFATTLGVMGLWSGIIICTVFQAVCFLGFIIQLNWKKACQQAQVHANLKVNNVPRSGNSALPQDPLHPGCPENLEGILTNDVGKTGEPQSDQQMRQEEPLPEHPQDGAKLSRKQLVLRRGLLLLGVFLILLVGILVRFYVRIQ
Assay: Transporter mediated assay (substrate/inhibitor), MDCK-II cells
Format: in vitro ADME
Conditions: human, polarized monolayer of MDCK-II cells expressing MATE1; MATE1, 0.1% BSA, 10 μM
Test readout: inhibition at 10 µM (%)
Give bare numbers, in %.

Bench note: what inhibition at 10 µM did CCc1cc(Cl)c(OC)c(N2CCN(CC(O)CCNC(=O)c3cc4ccccc4[nH]3)CC2)c1 (stereo not shown) show?
19.4

###

test system: CYP3A4 mRNA; test: CYP induction, mRNA, primary cultured human hepatocytes; type: in vitro ADME; conditions: human, primary cultured human hepatocytes, Lot 336, 3 μM; read-out: CYP3A4 mRNA Fold Induction (fold of vehicle control)
Test readout: fold induction at 48 h, 3 µM
Give bare numbers.

Bench note: what fold induction at 48 h, 3 µM did CCc1cc(Cl)c(OC)c(N2CCN(CC(O)CCNC(=O)c3cc4ccccc4[nH]3)CC2)c1 (stereo not shown) show?
3.7

###

tested on: CYP2B6; test: CYP induction, mRNA, primary cultured human hepatocytes; conditions: primary cultured human hepatocytes, Fold Induction (CYP2B6 mRNA expression), hepatocyte Lot 399, 3 µM
Test readout: fold induction at 48 h, 3 µM
Answers are plain numbers.

Bench note: what fold induction at 48 h, 3 µM did CCc1cc(Cl)c(OC)c(N2CCN(CC(O)CCNC(=O)c3cc4ccccc4[nH]3)CC2)c1 (stereo not shown) [R-VK4-116] show?
1.3

###

Assay: Plasma protein binding, Sephadex G-25 gel filtration
Format: in vitro ADME
Conditions: dog, plasma, nominal 1 μM, read-out: % Bound, Mean ± SD (converted)
Protocol: The gel filtration used solid-phase extraction columns containing hydrated gel filtration beads (Sephadex G-25). […] In this method, the amount of analyte accompanying the proteins (i.e., protein-bound R-VK4-116) before and after filtration was assayed for analyte concentration by LC-MS/MS.
Test readout: fraction unbound at 2 h, 1 μM
Give bare numbers.

Bench note: what fraction unbound at 2 h, 1 μM did CCc1cc(Cl)c(OC)c(N2CCN(CC(O)CCNC(=O)c3cc4ccccc4[nH]3)CC2)c1 (stereo not shown) show?
0.173

###

biological target: CYP3A4 (Homo sapiens, UniProt P08684); assay: in vitro; details: microsomes, CYP activity (% of Control) 3A4 (Midazolam)
Sequence (P08684 2-503): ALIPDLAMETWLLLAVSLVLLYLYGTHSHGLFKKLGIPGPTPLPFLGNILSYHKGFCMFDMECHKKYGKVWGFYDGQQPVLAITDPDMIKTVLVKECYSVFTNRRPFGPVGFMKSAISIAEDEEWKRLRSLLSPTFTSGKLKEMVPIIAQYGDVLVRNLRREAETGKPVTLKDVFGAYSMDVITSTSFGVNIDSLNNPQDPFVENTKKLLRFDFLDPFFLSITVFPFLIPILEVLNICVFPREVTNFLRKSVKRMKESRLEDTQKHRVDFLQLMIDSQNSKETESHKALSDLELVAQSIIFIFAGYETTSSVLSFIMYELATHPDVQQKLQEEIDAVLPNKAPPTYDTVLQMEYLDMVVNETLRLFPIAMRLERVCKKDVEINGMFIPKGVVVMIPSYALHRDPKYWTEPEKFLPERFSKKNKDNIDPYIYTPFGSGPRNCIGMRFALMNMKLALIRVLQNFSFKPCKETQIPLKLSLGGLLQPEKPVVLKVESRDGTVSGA
Test readout: activity at 20 min, 1 µM
Please format your answer as a value with the unit trailing.

Bench note: what activity at 20 min, 1 µM did CCc1cc(Cl)c(OC)c(N2CCN(CC(O)CCNC(=O)c3cc4ccccc4[nH]3)CC2)c1 (stereo not shown) [R-VK4-116] show?
95.3%
